assay-comment: NCI Yeast Anticancer Drug Screen. Data for the mlh1 rad18 strain (AID 175)
condition-summary: S. cerevisiae mlh1 rad18 strain growth inhibition; at 50.0 µM; active compounds read high
This is part of a sample that, as a whole, favours compounds with a hit. Of some 79,000 tested, about 15% had one in any assay.
attribute-measured: growth inhibition (%)

| compound | experimental-value |
| --- | --- |
| CCOC(=O)c1cc2cc(Br)ccc2[nH]1 | 20.4 |
| O=C1C=CC(=Nc2ccc(OC(=O)c3ccccc3)cc2)C=C1 | 9.35 |
| CC(=O)C(CCCCCCCCCCC(C(C)=O)C(C)=O)C(C)=O | -10.2 |
| CC1=NOC2(C1)C(=O)Nc1ccccc12 (stereo not drawn) | 18.4 |
| O=C1CCC(CC2CCCCC2)CC1 | -12.2 |
| O=c1[nH]nc(-c2ccccc2)n1-c1ccncc1 | 0.65 |
| COc1ccccc1NC(=O)C(=O)C1C(=O)Nc2ccccc2S1=O (stereo not drawn) | -45.5 |
| S=C(Nc1ccccc1)NC1SNC(=Nc2ccccc2)N1c1ccccc1 (stereo not drawn) | 99 |
| Cn1nnc(CC[N+]2(C)CCOCC2)n1 | 3.9 |
| OC(c1ccccc1)C(Cc1ccccc1)N1CCCCC1 (stereo not drawn) | 5.35 |
| CCOC(=O)N1CC(C)N(C(=O)OCC)CC1C (stereo not drawn) | 8.5 |
| CC(C)(C)C(=O)[CH-]C(=O)C(C)(C)C.CC(C)(C)C(=O)[CH-]C(=O)C(C)(C)C.CN(C)c1ccc([O-])cc1.CN(C)c1ccc([O-])cc1.[Ti+4] | -11.2 |
| CCCCCCC1(/C=C\c2ccccc2Cl)OCCO1 | 23.3 |
| NC(N)=N/N=C/c1c(-c2ccc(Cl)cc2)nc2n1CCS2 | -25.2 |
| CC1([C@H]2CC[C@H]3[C@@H]4CC[C@H]5OC(=O)CC[C@]5(C)[C@H]4CC[C@]23C)SCCS1 | 14.8 |
| COC(=O)c1cc(-c2ccccc2)c2c(=O)n(-c3ccccc3)[nH]c2n1 | 4.85 |
| Cc1c(F)c(Br)c([N+](=O)[O-])c(C)c1[N+](=O)[O-] | -17.9 |
| O=CCCC1CCCCC1 | -5.7 |
| Cc1cc(C)nc(NS(=O)(=O)c2ccc(NC(=O)c3cccn4c(=O)c5ccccc5nc34)cc2)n1 | 0.25 |
| O=C(O)c1cccc(CO)c1O | 4.4 |
| O=C(C[n+]1ccc2ccccc2c1)c1ccc(Br)cc1 | 28.9 |
| N#CCC(=O)NCCc1ccccn1 | -9.05 |
| NS(=O)(=O)c1ccc(N=C2C(=O)Nc3ccccc32)cc1 | 4.95 |
| CCCCOC(=O)c1cc(/C=C\c2ccccc2)on1 | 9.25 |
| NS(=O)(=O)c1ccc(NC(=O)CCl)cc1 | -15.9 |
| O=c1[nH]c2cc(Cl)ccc2nc1/C=C(\O)c1ccccc1 | 20.1 |
| COc1nc2ccccc2nc1OC | 4 |
| O=C1c2ccccc2C(=O)N1c1cccc2ccccc12 | 62 |
| Cn1c2cc3ccccc3cc2nc2cc3c(cc21)c(Cl)c(=O)c1ccccc13 | -2.35 |
| CC(=O)OCC1OC(OC(C)=O)C(N)C(OC(C)=O)C1OC(C)=O (stereo not drawn) | 19.4 |
| CCOC(=O)CCCCCCCCCC[N+](CC)(CC)CC(=O)c1ccc(NC(C)=O)cc1 | -0.1 |
| C[CH2][Sn]([CH2]C)([O]P(=O)(C[Si](C)(C)C)c1ccccc1)[O]P(=O)(C[Si](C)(C)C)c1ccccc1 (stereo not drawn) | 17.2 |
| CCOC(=O)C(C)Oc1ccc(Cn2ccnn2)cc1 (stereo not drawn) | 6.25 |
| COc1cccc(C2N=NC3=C(CCCC3)N2O)c1O (stereo not drawn) | 19.5 |
| OC[C@@H]1C2CCC([C@@H]1CO)C2(Cc1ccccc1)Cc1ccccc1 | -11.2 |
| Cc1cc(=O)n(Cc2ccco2)c(=S)[nH]1 | -9 |
| O=C(O)CC1CC2CC(=O)C1C2 (stereo not drawn) | 12.2 |
| Cc1cccc(C[P+](C/C=C/c2ccccc2)(c2ccccc2)c2ccccc2)c1 | 99.5 |
| CCCCC/C(=C\c1ccccc1)C1OCC(COC(C)=O)O1 (stereo not drawn) | -2.6 |
| COc1ccc(C2CC(c3ccccc3)=NN2c2ccccc2)cc1 (stereo not drawn) | 7.95 |
| Nc1ccc(C(=O)O)cn1 | -0.45 |
| COc1ccccc1NC1Oc2cc3c(cc2C(c2cc(OC)c(OC)c(OC)c2)C1C)OCO3 (stereo not drawn) | -5.35 |
| NC(=S)c1ccccc1N=Cc1cccs1 | 41.5 |
| CC1(C)C2CC3C(C2)C31C | -0.75 |
| Fc1cccc(C2SCc3nc4cc5ccccc5cc4n32)c1 (stereo not drawn) | -9.65 |
| C/C(=N\n1cc(-c2ccccc2)nc1N)c1ccccc1 | 13.1 |
| CSC1(C)C(=O)Nc2cc([N+](=O)[O-])ccc21 (stereo not drawn) | -5.55 |
| COc1ccc(/C(=N\O)c2nccc3cc(OC)c(OC)cc23)cc1OC | 18.4 |

====

Measured growth inhibition of individual entries
assay-comment: NCI Yeast Anticancer Drug Screen. Data for the cln2 rad14 strain (AID 165);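 also: 0% = growth equal to vehicle treated cultures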
condition-summary: S. cerevisiae cln2 rad14 strain, at 50.0 µM, active compounds read high
Compounds without any hit were thinned out: in the full panel of roughly 79,000, 15% have a hit.
attribute-measured: growth inhibition (%)

| compound | attribute-measured | experimental-value |
| --- | --- | --- |
| O=C(Nc1ccc(Cl)cc1)P(=O)(O)c1ccccc1 | growth inhibition | -26.8 |
| Cc1ccc(N=Nc2ccc(C)cc2NC(=S)Nc2ccccc2)cc1 | growth inhibition | -20.9 |
| COc1ccc(Cc2c3cc(OC)c(OC)cc3cc[n+]2C)cc1 | growth inhibition | -2.45 |
| CC1(C)OC2OC(COC(=O)c3ccc([N+](=O)[O-])cc3)C3OC(C)(C)OC3C2O1 (configuration not stated) | growth inhibition | -28.1 |
| Nc1cc([N+](=O)[O-])cc(S(=O)(=O)O)c1O | growth inhibition | -65.8 |
| Cc1ccsc1/C=N/Nc1ncccn1 | growth inhibition | 3.7 |
| COc1csn[n+]1-c1ccc(C)cc1 | growth inhibition | 7.5 |
| CC(=O)NC(NCCN)(c1ccccc1)c1ccccc1 | growth inhibition | 11.6 |
| CCOC(=O)c1ccc(NP(=O)(Nc2ccc(C(=O)OCC)cc2)c2ccc(N)cc2)cc1 | growth inhibition | -65.7 |
| CCCCCCOC(=O)c1ccccn1 | growth inhibition | -91.6 |
| NC(=O)c1cc2c(c3c1CCCC3)CCCC2 | growth inhibition | -52 |
| CCOC(=O)C(OC(C)=O)(C(=O)OCC)C(O)c1cccnc1 (configuration not stated) | growth inhibition | -37.5 |

====

assay-comment: NCI Yeast Anticancer Drug Screen. Data for the mec2-1 strain (AID 157)
condition-summary: S. cerevisiae mec2-1 strain, at 50.0 µM, active compounds read high
This is part of a sample that, as a whole, favours compounds with a hit. Of some 79,000 tested, about 15% had one in any assay.
Measured growth inhibition of individual entries
attribute-measured: growth inhibition (%)

| molecule | output-unit | experimental-value |
| --- | --- | --- |
| CNC(=O)OCc1c(COC(=O)NC)c(-c2ccccc2)n(-c2ccccc2)c1C | % | 27.8 |
| CC(C)/C=C(\C#N)C(=O)O | % | -13.5 |
| CC(=O)C1C(=O)C(=O)N(c2ccccc2C(C)C)C1=O (configuration not stated) | % | 6.55 |
| O=c1cc([N+](=O)[O-])c2c([nH]1)CCC2 | % | 1.3 |
| NC(CSCC(=O)O)C(=O)O (configuration not stated) | % | -3.85 |
| NC(=O)C(=O)n1ncc(Cl)c(Cl)c1=O | % | -3 |
| CSc1nc(NC2OCC(O)C(O)C2O)c(Cl)c(=O)[nH]1 (configuration not stated) | % | -2.1 |

====

assay-comment: NCI Yeast Anticancer Drug Screen. Data for the bub3 strain (AID 167)
condition-summary: S. cerevisiae bub3 mutant strain, at 50.0 µM, active compounds read high
About 79,000 compounds went through this panel and 15% of them were active in at least one assay; those are over-represented in the sample as a whole.
attribute-measured: growth inhibition (%)

| compound | output-unit | experimental-value |
| --- | --- | --- |
| COc1ccc(-c2cc(=O)c3cccc(CC(=O)O)c3o2)cc1OC | % | 99.3 |
| CC(=O)Nc1ccc2c(c1)Cc1cccc(O)c1-2 | % | 1.75 |
| CCc1cccc(C(C)(C)C)c1NC(=S)NC=C(C#N)C#N | % | 17.6 |
| CSc1ccc(OC(=O)Nc2cc([N+](=O)[O-])ccc2F)cc1C | % | 28.8 |
| C=C1[C@H](OCC(C)C)[C@@H](OCC(C)C)[C@@H](O)C(C)(C)/C=C/[C@H](C)C(=O)[C@@]2(O)C[C@H](C)[C@H](O)[C@@H]2[C@H]1OCC(C)C | % | -12.8 |
| O=C(c1ccccc1)N1CCOCC1 | % | -0.75 |
| CC(=O)/C(C=Nc1c(C)n(C)n(C)c1=O)=C(/O)c1ccccc1 | % | -19.6 |
| O=C(NO)Oc1cccc2ccccc12 | % | -3.3 |
| CC(C)c1ccc(/C=C2/C=C(c3ccc4ccccc4c3)OC2=O)cc1 | % | -17.8 |
| COC1=C(C(C2=C(OC)CC(C)(C)CC2=O)c2ccc3c(c2)OCO3)C(=O)CC(C)(C)C1 | % | -0.65 |
| CCC=Nc1ccccc1CO | % | -4 |
| Nc1ncnc2c1ncn2-c1ccc(N(CCO)CCO)cc1 | % | -9.45 |
| O=C1CCC2(CC1)SCCCS2 | % | -7.3 |
| COc1cc2c(cc1OC)C(c1ccc([N+](=O)[O-])c(C)c1)=NCC2 | % | 19.4 |
| CC(=O)OC12c3ccccc3C(c3ccccc31)C1C(=O)N(c3ccccc3O)C(=O)C12 (stereo not drawn) | % | -5.4 |
| CCN(CC)c1cc(-c2ccccc2)oc(=O)c1Cl | % | 16.5 |
| CCOC(=O)C12CCC(=O)C=C1[C@@H](C)C(=O)CC2 (stereo partly drawn) | % | -34.7 |
| C[N+](C)(C)CC(=O)N/N=C(/CC(=O)CC(C1=C(O)c2ccccc2OC1)c1ccccc1)C(=O)Nc1cccc(Cl)c1 (stereo not drawn) | % | 28.4 |
| Cc1c(C2CCSc3ccccc3N2)sc2ccccc12 (stereo not drawn) | % | 4.65 |
| O=C1Nc2ccccc2/C1=N\[O-].O=C1Nc2ccccc2/C1=N\[O-].[Cu+2] | % | -23.4 |
| O=C(O)C1CC(Cl)C(Cl)CC1C(=O)O (stereo not drawn) | % | -19.2 |
| Cc1cc(=O)[nH]c(N/N=C/c2ccco2)n1 | % | -33.8 |
| C=CCCCCCCCCC(N)=O | % | 13.2 |
